- targetOfAssay: recombinant human BACE1 (rhBACE1) (human, UniProt P56817 22-457, limits assumed)
- Sequence (P56817 22-457 limits assumed): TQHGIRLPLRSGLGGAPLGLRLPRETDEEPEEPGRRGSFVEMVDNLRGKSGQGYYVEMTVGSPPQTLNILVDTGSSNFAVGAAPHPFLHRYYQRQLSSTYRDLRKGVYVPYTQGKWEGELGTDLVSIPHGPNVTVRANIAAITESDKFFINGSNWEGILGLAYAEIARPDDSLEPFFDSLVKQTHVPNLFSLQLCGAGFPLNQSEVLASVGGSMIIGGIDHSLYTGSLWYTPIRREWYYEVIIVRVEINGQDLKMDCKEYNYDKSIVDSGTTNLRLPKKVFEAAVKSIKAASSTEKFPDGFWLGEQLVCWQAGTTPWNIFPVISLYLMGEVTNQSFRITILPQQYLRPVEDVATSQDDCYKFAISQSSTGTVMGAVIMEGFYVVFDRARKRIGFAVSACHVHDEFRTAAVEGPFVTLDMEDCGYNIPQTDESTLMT
- experimentSummary: cell-based or functional assay
Positions of bridges follow the written chain, without caps; N, C: chain ends. Non-standard residues stand in square brackets, D forms with d. Orn = NCCC[C@H](N)C(=O)O
Assign Caliper (MCE) BACE1 activity assay IC50 to each entry below.

Supply recorded Caliper (MCE) BACE1 activity assay IC50 for Ac-PEESLYCRLLALGCG-NH2 (disulfide 7-14 (inferred), also called BACE-21) [BACE021] here. 0.017 µM

Look up and report measured Caliper (MCE) BACE1 activity assay IC50 for this entry: Ac-YCRLLGIGCG-NH2 (disulfide 2-9 (inferred)) [BACE033] 10.9 µM

Specify Caliper (MCE) BACE1 activity assay IC50 for Ac-NAESMYCRLLGIGCG-NH2 (disulfide 7-14 (inferred), also called BACE020 Glu2 to Ala) [BACE043] and stop. 0.013 µM

Input Ac-NEESMYCRLLAIGCG-NH2 (disulfide 7-14 (inferred), also called BACE020 Gly11 to Ala) [BACE051] , output reported Caliper (MCE) BACE1 activity assay IC50. 0.018 µM

Item Ac-NEASMYCRLLGIGCG-NH2 (disulfide 7-14 (inferred), also called BACE020 Glu3 to Ala) [BACE044] : provide Caliper (MCE) BACE1 activity assay IC50 0.046 µM

Check the records and state Caliper (MCE) BACE1 activity assay IC50 for Ac-ESMYC[Orn]LLGIGCG-NH2 (disulfide 5-12 (inferred), also called BACE030 with Arg to ornithine) [BACE059] 0.222 µM

Note down Caliper (MCE) BACE1 activity assay IC50 recorded for Ac-NEESMYCALLGIGCG-NH2 (disulfide 7-14 (inferred), also called BACE020 Arg8 to Ala mutant) [BACE048] > 10 µM

Entry Ac-ESMYCKLLGIGCG-NH2 (disulfide 5-12 (inferred), also called BACE030 with Arg to lysine) [BACE058] needs its Caliper (MCE) BACE1 activity assay IC50 filled in; supply it. 0.074 µM

Please report Caliper (MCE) BACE1 activity assay IC50 for the following binder: Ac-NEESMYCRALGIGCG-NH2 (disulfide 7-14 (inferred), also called BACE020 Leu9 to Ala) [BACE049] 1.38 µM

Complete the entry with Caliper (MCE) BACE1 activity assay IC50 for Ac-NEEHMYCRLLGIGCG-NH2 (disulfide 7-14 (inferred), also called BACE020 Ser4 to His) [BACE056] 3.58 µM

Give Caliper (MCE) BACE1 activity assay IC50 for Ac-EESMYCRLLGIGCG-NH2 (disulfide 6-13 (inferred), N-terminal truncation of BACE020) [BACE029] 0.013 µM

Return Caliper (MCE) BACE1 activity assay IC50 for the following binder: Ac-ESMYCALLGIGCG-NH2 (disulfide 5-12 (inferred)) [BACE057] > 10 µM
